# System: E. coli ATCC 35218
# Assay type: cell-based
# run_parameters: ATCC 35218

molecule	MIC for E. coli ATCC 35218
C[C@@H](c1ccc2ccccc2c1)N(CC(N)=O)C(=O)CN(C(=O)CN(CCCCN)C(=O)CN(C(=O)CN(C(=O)CN(CCCCN)C(=O)CN(C(=O)CN(C(=O)CN(CCCCN)C(=O)CN(C(=O)CN(C(=O)CNCCCCN)[C@@H](C)c1ccccc1)[C@@H](C)c1ccccc1)[C@@H](C)c1ccccc1)[C@@H](C)c1ccc2ccccc2c1)[C@@H](C)c1ccccc1)[C@@H](C)c1ccccc1)[C@@H](C)c1ccccc1	25 to 50 µM
